target: human P2X3 receptor (Homo sapiens); assay: Intracellular calcium measurement to assess antagonist activity at human P2X3 receptors (hP2X3 FLIPR); assay type: cell-based; set-up: expressed in transfected cells; host or cells: human astrocytoma 1321N1 (1312N1 [sic]); settings: head prints (1321N1); read-out: 1) hP2X3 IC50 [nM] (1321N1)
MEASURED ATTRIBUTE: IC50 (nM)

Illustrative cases are given below, each with its answer.
Q: Look at this molecule and give its reported IC50. "Cc1ccc(NC(=O)Cn2c3c(c(=O)n4nc(C(C)C)cc24)CN(C(C)C)C3=O)nc1"
Result: 107

Q: Now give it for "CC(C)(C)c1cc2n(CC(=O)Nc3ccc(F)cn3)c3c(c(=O)n2n1)CN(C1CCCC1)C3=O" too.
Result: 22

Q: Also "CC[C@@H](C)N1Cc2c(n(CC(=O)Nc3ccc(C)cn3)c3cc(C(F)(F)F)nn3c2=O)C1=O" ?
Result: 100

Q: Same question for "COC[C@@H](C)N1Cc2c(n(CC(=O)Nc3ccc(F)cn3)c3cc(C(C)C)nn3c2=O)C1=O" please.
Result: 16

1. Cc1cc2n(CC(=O)Nc3ccc(F)cn3)c3c(c(=O)n2n1)CN(C(C)C)C3=O
2. Cc1cc2n(CC(=O)Nc3ccc(F)cn3)c3c(c(=O)n2n1)CN([C@@H](C)C1CC1)C3=O
3. CC[C@H](C)N1Cc2c(n(CC(=O)Nc3ccc(F)cn3)c3cc(C(F)(F)F)nn3c2=O)C1=O
4. CCc1cc2n(CC(=O)Nc3ccc(F)cn3)c3c(c(=O)n2n1)CN(C(C)C)C3=O
5. COC[C@@H](C)N1Cc2c(n(CC(=O)Nc3ccc(F)cn3)c3cc(C)nn3c2=O)C1=O
Q: Output the entries ranked by IC50 from maximum down to minimum. # list labels per requested ordering
Result: 3, 2, 1, 5, 4
(3: 312 nM, 2: 117 nM, 1: 80 nM, 5: 52 nM, 4: 35 nM)

P. COCC(C)N1Cc2c(n(CC(=O)Nc3ccc(F)cn3)c3cc(C(=O)N(C)C)nn3c2=O)C1=O (racemic)
Q. CC(C)(O)CN1Cc2c(n(CC(=O)Nc3ccc(F)cn3)c3cc(C(C)(C)C)nn3c2=O)C1=O
Q: Lab note: record which item had the higher IC50, P or Q . Give the label of your selection.
Result: Q
(Q: 139 nM, P: 57 nM)

A. CC(C)(C)c1cc2n(CC(=O)Nc3ccc(F)cn3)c3c(c(=O)n2n1)CN(C1COC1)C3=O
B. CC(C)N1Cc2c(n(CC(=O)Nc3ccc(Cl)cn3)c3cc(C(C)(C)C)nn3c2=O)C1=O
Q: Given the listed items, does A or B have the lesser reported IC50? Please indicate the selected item by its label.
Result: B
(B: 32 nM, A: 95 nM)

----------
biological target: human P2X2/3 receptors (Homo sapiens, UniProt P56373+Q9UBL9); construct: expressed in transfected cells; host or cells: human astrocytoma 1321N1 (1312N1 [sic]); assay: Intracellular calcium measurement, antagonist activity at human P2X2/3 receptors (hP2X23 1321N1), Fluo8; format: cell-based; settings: ratio of column 4) hP2X2/3 to column 3) hP2X3, 1321N1
Sequence (P56373 whole entry): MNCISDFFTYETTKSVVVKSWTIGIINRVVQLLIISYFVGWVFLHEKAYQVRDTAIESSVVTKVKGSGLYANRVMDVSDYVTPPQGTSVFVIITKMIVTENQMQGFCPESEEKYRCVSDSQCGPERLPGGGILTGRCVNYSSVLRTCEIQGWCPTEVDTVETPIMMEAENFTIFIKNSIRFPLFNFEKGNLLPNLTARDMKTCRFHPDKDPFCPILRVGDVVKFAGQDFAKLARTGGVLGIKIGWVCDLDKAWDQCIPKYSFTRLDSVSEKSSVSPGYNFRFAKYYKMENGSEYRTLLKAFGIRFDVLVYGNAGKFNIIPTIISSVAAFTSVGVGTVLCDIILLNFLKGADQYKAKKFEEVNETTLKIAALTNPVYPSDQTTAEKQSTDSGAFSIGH
Sequence (Q9UBL9 whole entry): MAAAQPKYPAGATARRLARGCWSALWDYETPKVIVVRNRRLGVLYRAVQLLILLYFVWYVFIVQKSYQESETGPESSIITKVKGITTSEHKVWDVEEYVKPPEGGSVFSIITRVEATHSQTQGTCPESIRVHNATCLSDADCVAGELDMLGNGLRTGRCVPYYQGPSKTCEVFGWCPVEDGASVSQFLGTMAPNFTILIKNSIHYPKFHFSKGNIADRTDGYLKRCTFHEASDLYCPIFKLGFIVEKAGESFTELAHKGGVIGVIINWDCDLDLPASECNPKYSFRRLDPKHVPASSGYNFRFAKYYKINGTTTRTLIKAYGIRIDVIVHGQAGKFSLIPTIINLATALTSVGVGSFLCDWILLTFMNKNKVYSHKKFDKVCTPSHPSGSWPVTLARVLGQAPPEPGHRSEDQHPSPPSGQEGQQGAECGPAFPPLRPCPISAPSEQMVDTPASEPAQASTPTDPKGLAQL
MEASURED ATTRIBUTE: hP2X23/hP2X3* Selectivity (1321N1)

Q: Query: hP2X23/hP2X3* Selectivity (1321N1); subject: "CC(C)N1Cc2c(n(CC(=O)Nc3ccc(F)cn3)c3cc(Br)nn3c2=O)C1=O"
Result: 50

Q: What about this compound? "CC(C)N1Cc2c(n(CC(=O)Nc3ccc(F)cn3)c3cc(NC(=O)COCc4ccccc4)nn3c2=O)C1=O"
Result: 38

----------
target: human P2X3 receptor (Homo sapiens, UniProt P56373); assay: Intracellular calcium measurement to assess antagonist activity at human P2X3 receptors (hP2X3 CHO), photina luminescence; assay type: cell-based; set-up: expressed in transfected cells; host or cells: Chinese hamster ovary (CHO) cells; details: column 2), CHO cells, agonist α,β-methylene-ATP at EC50
Sequence (P56373 whole entry): as the sequence (P56373 whole entry) above
MEASURED ATTRIBUTE: IC50 (nM)

Q: Find the recorded IC50 belonging to CC(C)N1Cc2c(n(CC(=O)Nc3ccc(F)cn3)c3cc(C(=O)Nc4ccccc4Cl)nn3c2=O)C1=O [Example 203] and report it.
Result: 25

Q: What do you get for CC(C)N1Cc2c(n(CC(=O)Nc3ccc(F)cn3)c3cc(-c4ccccc4)nn3c2=O)C1=O [Example 150] ?
Result: 12

1. CC(C)(C)c1cc2n(CC(=O)Nc3ccc(F)cn3)c3c(c(=O)n2n1)CN(C1CCC1)C3=O [Example 17]
2. CCc1cc2n(CC(=O)Nc3ccc(F)cn3)c3c(c(=O)n2n1)CN(C1CCN(C)CC1)C3=O [Example 87]
Q: Determine, for 1 and 2 , which has the greater value of IC50. Bench note: the answer is the label of the chosen record.
Result: 2

----------
target: UniProt P56373; assay: Intracellular calcium measurement to assess antagonist activity at human P2X3 receptors (hP2X3 CHO), photina luminescence; type: cell-based; parameters: expressed in transfected cells; host or cells: Chinese hamster ovary (CHO) cells; conditions: column 2), CHO cells, agonist α,β-methylene-ATP at EC50
MEASURED ATTRIBUTE: IC50 (nM)

Completed entries (count: 4):
Q: Record request: IC50 value, item CCc1cc2n(CC(=O)Nc3ccc(F)cn3)c3c(c(=O)n2n1)CN(C1CCN(C(=O)C(F)F)C1)C3=O (centres unmarked)
Result: 270

Q: Now consider "CC(C)Cc1cc2n(CC(=O)Nc3ccc(F)cn3)c3c(c(=O)n2n1)CN(C1CCCC1)C3=O" .
Result: 6

Q: Another molecule to look at: "CCc1cc2n(CC(=O)Nc3ccc(F)cn3)c3c(c(=O)n2n1)CN(C[C@@H]1COCCN1C(C)C)C3=O"
Result: 108

Q: Field entry: CC(C)N1Cc2c(n(CC(=O)Nc3ccc(F)cn3)c3cc(C4CCN(C5CCC5)C4)nn3c2=O)C1=O (centres unmarked)
Result: 162

a. CCc1cc2n(CC(=O)Nc3ccc(F)cn3)c3c(c(=O)n2n1)CN(C[C@H]1CN(C(=O)OC(C)(C)C)CCO1)C3=O
b. CCc1cc2n(CC(=O)Nc3ccc(F)cn3)c3c(c(=O)n2n1)CN(CCCOC)C3=O
c. N#Cc1cc2n(CC(=O)Nc3ccc(F)cn3)c3c(c(=O)n2n1)CN(CCN1CCOCC1)C3=O
Q: Order the 3 molecules from highest to lowest IC50. Write the labels out in the order the request specifies.
Result: c, b, a

I. CC(C)N1Cc2c(n(CC(=O)Nc3ccc(F)cn3)c3cc(N4CCN(C)CC4)nn3c2=O)C1=O
II. O=C(Cn1c2c(c(=O)n3nc(C(=O)Nc4ccccc4F)cc13)CN(C1CCOCC1)C2=O)Nc1ccc(F)cn1
Q: Please tell me which of the two, I or II , has the higher reported IC50 value. Which one? Tell me its label.
Result: II
(II: 180 nM, I: 63 nM)

a. CC(C)(C)c1cc2n(CC(=O)Nc3ccc(F)cn3)c3c(c(=O)n2n1)CN(CCO)C3=O
b. Cc1cc2n(CC(=O)Nc3ccc(F)cn3)c3c(c(=O)n2n1)CN([C@@H](C)C1CC1)C3=O
Q: Which has the higher IC50, a or b ? Identify your pick by its label.
Result: b

P. CCc1cc2n(CC(=O)Nc3ccc(F)cn3)c3c(c(=O)n2n1)CN(Cc1ccncc1)C3=O
Q. CCc1cc2n(CC(=O)Nc3ccc(F)cn3)c3c(c(=O)n2n1)CN(C1CCN(C(=O)OC(C)(C)C)CC1)C3=O
Q: // returns P or Q , whichever has the lower IC50 Lab note: record the label of whichever item you select.
Result: P
(P: 69 nM, Q: 470 nM)

P. O=C(Cn1c2c(c(=O)n3nc(Br)cc13)CN(CCN1CCOCC1)C2=O)Nc1ccc(F)cn1
Q. CC(C)Cc1cc2n(CC(=O)Nc3ccc(F)cn3)c3c(c(=O)n2n1)CN(C(C)C)C3=O
R. CC(C)N1Cc2c(n(CC(=O)Nc3ccc(F)cn3)c3cc(NC(=O)c4cnn[nH]4)nn3c2=O)C1=O
Q: Please rank these molecules by IC50 in descending order. Write out the labels following the order that was asked for.
Result: P, R, Q

A. CC(C)(C)c1cc2n(CC(=O)Nc3ccc(F)cn3)c3c(c(=O)n2n1)CN(C1CCCC1)C3=O
B. CCc1cc2n(CC(=O)Nc3ccc(F)cn3)c3c(c(=O)n2n1)CN(CC1CNC1)C3=O
C. O=C(Cn1c2c(c(=O)n3nc(-c4ccncc4)cc13)CN(Cc1cccnc1)C2=O)Nc1ccc(F)cn1
D. COC[C@H](C)N1Cc2c(n(CC(=O)Nc3ccc(F)cn3)c3cc(C(=O)NC4CC4)nn3c2=O)C1=O
E. CC[C@H](C)N1Cc2c(n(CC(=O)Nc3ccc(C)cn3)c3cc(C(F)(F)F)nn3c2=O)C1=O
Q: Could you please sort these 5 entries by IC50 from high to low? Ranked list of labels, please, in the requested order.
Result: B, E, D, A, C
(B: 585 nM, E: 180 nM, D: 56 nM, A: 20 nM, C: 14 nM)

1. CC(C)N1Cc2c(n(CC(=O)Nc3ccc(F)cn3)c3cc(C(=O)Nc4c(F)cccc4F)nn3c2=O)C1=O
2. CC(C)N1Cc2c(n(CC(=O)Nc3ccc(F)cn3)c3cc(N)nn3c2=O)C1=O
3. CCc1cc2n(CC(=O)Nc3ccc(F)cn3)c3c(c(=O)n2n1)CN(C[C@H]1CN(C2CCC2)CCO1)C3=O
4. CCc1cc2n(CC(=O)Nc3ccc(F)cn3)c3c(c(=O)n2n1)CN(CC1CCCO1)C3=O (racemic)
5. COC[C@H](C)N1Cc2c(n(CC(=O)Nc3ccc(F)cn3)c3cc(-c4ccncc4C)nn3c2=O)C1=O
Q: Task field, ranking: reported IC50, descending order. Quick reminder: the answer is the labels in the order asked.
Result: 2, 4, 3, 1, 5

A. Cc1cc(C)c(-c2cc3n(CC(=O)Nc4ccc(F)cn4)c4c(c(=O)n3n2)CN(C(C)C)C4=O)cn1
B. CCc1cc2n(CC(=O)Nc3ccc(F)cn3)c3c(c(=O)n2n1)CN(C(C)COCc1ccccc1)C3=O (racemic)
C. CC(C)N1Cc2c(n(CC(=O)Nc3ccc(F)cn3)c3cc(C(=O)N4CCC4)nn3c2=O)C1=O
Q: Sort (3 molecules) by IC50: min first. Would you mind listing the labels in the order requested?
Result: A, C, B
